tested on: FB; test: Euclidean distance of Cell Painting phenotypic profile (signed KS, 77 features) to DMSO centroid (dimensionless distance); 5 or 10 uM (library dependent); higher = stronger phenotypic change vs DMSO (phenoactivity); conditions: 48 h
Structures can show the parent of a compound that is named as a salt.
Value Kind: Euclidean distance

1) COc1ccc(C(=O)Nc2sc3c(c2C(N)=O)CCCC3)cc1OC
0.845
2) COC1=CC(=O)C[C@@H](C)[C@]12Oc1c(Cl)c(OC)cc(OC)c1C2=O
1.48
3) N=C(N)N/N=C/c1c(Cl)cccc1Cl [Guanabenz Acetate]
0.609
4) O=C1CN2Cc3c(ccc(Cl)c3Cl)N=C2N1 [Anagrelide HCl]
1.18
5) C[C@@H]1O[C@@H](OC[C@H]2O[C@@H](Oc3c(-c4ccc(OCCO)c(OCCO)c4)oc4cc(OCCO)cc(O)c4c3=O)[C@H](O)[C@@H](O)[C@@H]2O)[C@H](O)[C@H](O)[C@H]1O
0.834
6) C[C@@H](NCCCc1cccc(C(F)(F)F)c1)c1cccc2ccccc12 [Cinacalcet HCl]
1.06
7) Cc1cc(C(=O)Nc2nc3cccc(Cl)c3n2[C@@H]2CCCCN(C(=O)/C=C/CN(C)C)C2)ccn1 [Nazartinib (EGF816. NVS-816)]
3.18
8) C[C@H](Cc1cc2c(c(C(N)=O)c1)N(CCCO)CC2)NCCOc1ccccc1OCC(F)(F)F
2.6
9) O=C1CN(/N=C/c2ccc(-c3ccc([N+](=O)[O-])cc3)o2)C(=O)N1 [Dantrolene sodium hemiheptahydrate]
1.21
10) Cc1cc(-n2c(=O)[nH]c(=O)n(C)c2=O)ccc1Oc1ccc(SC(F)(F)F)cc1
0.686
11) O=C1c2cccc(O)c2C(=O)c2c(O)cccc21
0.924
12) CC(=O)Nc1nnc(S(N)(=O)=O)s1 [Acetazolamide]
0.704
13) CN(C)CCN1C(=O)c2cccc3cc(N)cc(c23)C1=O [Amonafide]
3.29
14) C#C[C@]1(O)CC[C@H]2[C@@H]3CCc4cc(OC)ccc4[C@H]3CC[C@@]21C
1.26
15) OC[C@H]1O[C@@H](O[C@@H]2[C@@H](CO)OC(O)(CO)[C@H]2O)[C@H](O)[C@@H](O)[C@H]1O (mixture of isomers)
0.999
16) COC(=O)OCOc1c2n(ccc1=O)N([C@@H]1c3ccccc3SCc3c1ccc(F)c3F)[C@@H]1COCCN1C2=O
1.58
